Assay: Metabolic stability in liver microsomes (unknown origin) assessed as half life
Type: ADME, Microsome
half-life for assorted compounds
Your reply should be a number followed by the unit it is expressed in.

Below: 4 compounds and their reported half-life.
CPD SMILES | half-life
Cc1c(COc2cc(OCc3cccc(C#N)c3)c(CN3C[C@H](O)C[C@@H]3C(=O)O)cc2Cl)cccc1-c1ccc2c(c1)OCCO2 | 1.3 min
Cc1c(-c2ccccc2)cccc1[C@H]1C[C@@H]1c1cc(OCc2cccc(C#N)c2)c(CNC(C)(C)C(=O)O)cc1Cl | 518 min
Cc1c(COc2nc(OCc3cccc(C#N)c3)c(CNC(C)(C)CCC(=O)O)cc2Cl)cccc1-c1ccccc1 | 51.6 min
Cc1c(-c2ccccc2)cccc1[C@@H]1C[C@H]1c1cc(OCc2cccc(C#N)c2)c(CNC(C)(C)C(=O)O)cc1Cl | 2960 min

Query compound follows.
Incoming: Bench note: what half-life did COc1nc(OCc2cccc(-c3ccccc3)c2C)ccc1CNCCNC(C)=O show?
Outgoing: 58.3 min

Sourced from ChEMBL document CHEMBL6127006
